Quick list: melting point per entry.
READOUT KIND: melting point (°C)

> print(dat)
                                   compound  value
1  CCOC(=O)C(NC(=O)c1ccccc1)C(=O)OCC [diethyl benzamidomalonate]     63
2  COC(=O)CCC(C)C1CCC2C3C(=O)C(Br)C4CCCCC4(C)C3CCC12C (centres undefined) [methyl 6-bromo-7-oxocholan-24-oate]    124
3            NC(=O)c1ccccc1O [salicylamide]    140
4  C1CCC2=NCCCN2CC1 [1,8-diazabicyclo[5.4.0]undec-7-ene]    -70

* * *

READOUT KIND: melting point (°C)

> print(dat)
                      mol  value
1                 CC(=O)S    -17
2           Nc1ccc(F)cc1F   -7.5
3  Clc1c2ccccc2cc2ccccc12    104
